Test system: BT-549
Experiment: normalised viability (% of control), CellTiter-Blue; higher = more viable cells (about 100 = DMSO control)
Conditions: 100 nM; incubation time: 72 h
// classify: if (normalised viability < 90%) Satisfied else Not satisfied

Previously resolved entries follow.
input-smiles | class-label
Oc1ncnc2[nH]ncc12 | Satisfied
Nc1nc2[nH]cnc2c(=S)[nH]1 | Not satisfied
CC(=O)c1c(C)c2cnc(Nc3ccc(N4CCNCC4)cn3)nc2n(C2CCCC2)c1=O | Not satisfied

Continue with the next molecule.
I'd appreciate it if you could check whether COc1cc(F)c(F)c(Nc2ccc(I)cc2F)c1NS(=O)(=O)C1(C[C@H](O)CO)CC1 has normalised viability smaller than 90%.
Satisfied

---

normalised response values for the molecules below.
Test system: MDA-MB-231
Test: normalised response (% of control), CellTiter-Glo; higher = more viable cells (100 = DMSO, 0 = benzethonium chloride kill control)
Settings: incubation time: 72 h
Record the value in %, omitting the unit from your answer.

molecule | tested-on | numeric-value
Oc1ncnc2[nH]ncc12 [Allopurinol] (10 nM) | MDA-MB-231 | 99.6

We next turn to a different molecule, shown below.
Give the reported value of normalised response for this record: Nc1nc2[nH]cnc2c(=S)[nH]1 [Thioguanine] (10 nM)
98.2

---

EC50, CellTiter-Glo values for the compounds below.
Tested on: BT-474
Details: 72 h
Reply with a number, then the unit it belongs to.

Some entries whose results are on file:
input-smiles | result
Nc1nc2[nH]cnc2c(=S)[nH]1 | 197 nM
CC(=O)c1c(C)c2cnc(Nc3ccc(N4CCNCC4)cn3)nc2n(C2CCCC2)c1=O | 352 nM
C[C@]1(O)C[C@@H](c2nc(-c3ccc4ccc(-c5ccccc5)nc4c3)c3c(N)nccn32)C1 | 1090 nM
Cc1ccc([N+](=O)[O-])cc1S(=O)(=O)N(C)/N=C/c1cnc2ccc(Br)cn12 | 26.1 nM
CC(C)(C)c1cnc(CSc2cnc(NC(=O)C3CCNCC3)s2)o1 | 112 nM

Give the reported value of EC50, CellTiter-Glo for this record: Nc1ncn([C@@H]2O[C@H](CO)[C@@H](O)[C@H]2O)c(=O)n1
2290 nM

---

normalised viability values for the molecules below.
System: CAL-51
Experiment: normalised viability (% of control), CellTiter-Blue; higher = more viable cells (about 100 = DMSO control)
Conditions: incubation time: 72 h

Some entries whose results are on file:
molecule | normalised viability
O=C1CN2Cc3c(ccc(Cl)c3Cl)N=C2N1 [Anagrelide] (1000 nM) | 73.6%
CC1=C2C[C@H]3[C@@H](CC=C4C[C@@H](O)CC[C@@]43C)[C@@H]2CC[C@]12O[C@@H]1C[C@H](C)CN[C@H]1[C@H]2C [Cyclopamine] (1000 nM) | 110%
CC1(C)CNc2cc(NC(=O)c3cccnc3NCc3ccncc3)ccc21 [Motesanib] (1000 nM) | 105%
O=NN(CCCl)C(=O)NCCCl [Carmustine] (1000 nM) | 96.9%
O=P(O)(O)C(O)(Cn1ccnc1)P(=O)(O)O [Zoledronic acid] (1000 nM) | 101%

We next turn to a different molecule, shown below.
Give the reported value of normalised viability for this record: Cn1cc(C2=Nc3cc(NC(=O)C(N)C4CCCCC4)cc4c3C2=CNNC4=O)cn1 (stereo unspecified) (1000 nM)
87.8%
